Entry source: BindingDB's records for doi:10.1021/jm021014d

Assay: Inhibition of [3H]pentazocine binding to Sigma receptor type 1 in guinea pig brain membrane without cerebellum
readout-type: Ki (nM)
Numbers only, in nM.

Look over these answered cases.
[[record]]
smiles = "C(/C=C/c1ccc2c(c1)OCO2)=C\\CN1CCCCC1"
recorded_result = 0.86

[[record]]
smiles = "CC1CCN([C@H](C)COc2ccc(Cl)cc2)CC1"
recorded_result = 1.18

[[record]]
smiles = "CC1CCN(C[C@@H](C)COc2ccc(Cl)cc2)CC1"
recorded_result = 1.7

[[record]]
smiles = "CC1CCN(C[C@H](C)COc2ccc(Cl)cc2)CC1"
recorded_result = 1.09


As a next step, examine the compound that follows.
Given item CC1CCN([C@@H](C)COc2ccc(Cl)cc2)CC1 , the value recorded as its Ki is 0.34
